System: OVCAR-5 ovarian
Test: NCI-60 one-dose screen, 48 h
Details: 10 µM unless noted
Compounds without any hit were thinned out: in the full panel of roughly 83,000, 20% have a hit. Active and inactive are the calls of the source. Rule for the calls: active = growth percent below 10; inactive = the rest.
Give your call using only these classes: TRUE for active, FALSE for inactive

compound	answerLabel
CCc1ccc(NC(=O)N[C@@H](Cc2cccc(C)c2)C(=O)N[C@@H]2C(=O)N3CCC[C@H]3C(=O)N3CCCC[C@H]3C(=O)N[C@@H](CO)C(=O)N3C[C@H](C)C[C@H]3C(=O)O[C@H]2C)c(F)c1	FALSE
C=CCn1c(SCC(=O)Nc2ccc(OC)cc2)nnc1-c1ccc(Cl)cc1	FALSE
O=C(Nc1cccc(-c2nc(-c3ccc(NC(=O)c4cccnc4)cc3Cl)no2)c1)Nc1ccc(NC(=O)C2CC2)c(C(F)(F)F)c1	TRUE
Cn1cc(-c2nn3cc(-c4cccnc4)nc3s2)c2ccccc21	FALSE
CCN1C/C(=N\S(=O)(=O)c2ccccc2)N(CC)C1=S	FALSE

Q. So what was the verdict on `CC[C@@](C)(NC(=O)C(C)(C)NC(=O)[C@@H](NC(=O)[C@@H]1CCCN1C(=O)C(C)(C)NC(=O)[C@H](CC(C)C)NC(=O)CNC(=O)C(C)(C)NC(=O)[C@@H](NC(=O)C(C)(C)NC(=O)[C@H](CCC(N)=O)NC(=O)[C@H](C)NC(=O)C(C)(C)NC(=O)[C@H](C)NC(=O)C(C)(C)NC(=O)[C@@H]1CCCN1C(=O)C(C)(C)NC(C)=O)C(C)C)C(C)C)C(=O)N[C@@H](CCC(N)=O)C(=O)N[C@@H](CCC(N)=O)C(=O)N[C@H](CO)Cc1ccccc1` in this test?
A. FALSE

Q. So what was the verdict on `O=C1Nc2cc(OC(F)(F)F)ccc2Oc2ccc(-c3ccnc(N4CCNCC4)c3)cc21` in this test?
A. FALSE

Q. So what was the verdict on `O=C1NC(=O)c2c1c1c3ccccc3ccc1c1[nH]c3ccccc3c21` in this test?
A. FALSE

Q. So what was the verdict on `Cc1cc(C(=O)Nc2ccc(SC#N)cc2)c(C)o1` in this test?
A. FALSE

Q. So what was the verdict on `COc1ccc(NC(=O)[C@H](C)N)cc1C(=O)Nc1cccc(-c2cc(=O)c3c(OC)c(OC)c(OC)cc3o2)c1` in this test?
A. FALSE

Q. So what was the verdict on Cc1cccc(NC(c2cc3cccc4ccc5cccc2c5c43)c2nnnn2C(C)(C)C)c1C (stereo not drawn) in this test?
A. FALSE

Q. So what was the verdict on `CN1CCN(c2ccc3c(c2)nc(NNC(=O)c2ccncn2)c2cccn23)CC1` in this test?
A. FALSE

Q. So what was the verdict on `N#C/C(=C\c1ccc(-c2ccc(F)cc2)o1)C(=O)Nc1ncc(Cc2ccc(Cl)cc2Cl)s1` in this test?
A. FALSE
